All figures here come from paper PMC10683372.

Bridge positions count the residues as written; N and C are the ends.
TEST READOUT: T m higher than hirudin
Enter the number, and then the unit.

Exam item: Reported T m higher than hirudin for H-IRFGMGKVPCPDGEVGYTCDCGEKICLYGQSCNDGQCSGDPKPSSEFEEFEIDEEEK-OH (disulfide 10-19, 21-32, 26-37) : what is it?
Marked response: 22 °C
